Data credit: patent US20240059799A1

# STUDY_SYSTEM: T1, recombinant human TL1A (human, UniProt O95150 71-251)
# T1 construct: The ELISA method says only 'recombinant TL1A' coated on plates; homotrimeric cytokine; also called TNFSF15; recombinant TL1A
# T1 chain: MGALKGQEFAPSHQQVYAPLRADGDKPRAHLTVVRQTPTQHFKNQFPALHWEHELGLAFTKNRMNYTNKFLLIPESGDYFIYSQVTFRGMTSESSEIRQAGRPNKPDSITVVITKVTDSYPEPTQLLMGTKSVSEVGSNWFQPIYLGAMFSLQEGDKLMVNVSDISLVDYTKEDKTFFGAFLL
# PROCEDURE_TEXT: competition ELISA on coated recombinant TL1A; competitor biotinylated TL1A-0002
READOUT_NAME: Bioactivity relative to TL1A-0002 (fold)
Hi! Could you send only the number? It should be in fold, unit omitted.

# input For TL1A-0292 (antibody, human IgG1, kappa, V domains shown, human IgG1 effector-function-minimized / human kappa) VH: QVQLVQSGAEVKKPGASVKVSCKASGYDFTYYGVSWVRQAPGQGLEWMGWISTYNTVTHYAPSLQGRVTMTTDTSTSTAYMELRSLRSDDTAVYYCARESYYGSGAFRGGMDVWGQGTTVTVSS VL: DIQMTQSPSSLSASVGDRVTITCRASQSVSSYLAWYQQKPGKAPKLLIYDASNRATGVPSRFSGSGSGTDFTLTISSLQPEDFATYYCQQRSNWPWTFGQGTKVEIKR , what is its reported Bioactivity relative to TL1A-0002?
# output 1.9

# input What do you have for TL1A-0299 (antibody, V domains shown, IgG1 effector-minimized/kappa) VH: QVQLVQSGAEVKKPGASVKVSCKASGYDFTYYGIGWVRQAPGQGLEWMGWISTYNDNTHYAPSLQGRVTMTTDTSTSTAYMELRSLRSDDTAVYYCARESYYGSGAHRGGMDVWGQGTTVTVSS VL: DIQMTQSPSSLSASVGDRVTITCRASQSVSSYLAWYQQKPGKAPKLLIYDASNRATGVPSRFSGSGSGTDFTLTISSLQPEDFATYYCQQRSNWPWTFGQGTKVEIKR ?
# output 4.5

# input What do you have for TL1A-0300 (antibody, V domains shown, IgG1 effector-minimized/kappa) VH: QVQLVQSGAEVKKPGASVKVSCKASGYDFTYYGIGWVRQAPGQGLEWMGWISTYNDNTHYAQKLQGRVTMTTDTSTSTAYMELRSLRSDDTAVYYCARESYYGSGAFRGGMDVWGQGTTVTVSS VL: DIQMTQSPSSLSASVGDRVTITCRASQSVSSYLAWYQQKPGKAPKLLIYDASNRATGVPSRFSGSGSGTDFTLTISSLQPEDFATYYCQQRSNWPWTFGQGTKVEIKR ?
# output 4.7

# input What do you have for TL1A-0294 (antibody, human IgG1, kappa, V domains shown, human IgG1 effector-function-minimized / human kappa) VH: QVQLVQSGAEVKKPGASVKVSCKASGYDFTYYGVSWVRQAPGQGLEWMGWISTYNTNTHYAPSLQGRVTMTTDTSTSTAYMELRSLRSDDTAVYYCARESYYGSGAFRGGMDVWGQGTTVTVSS VL: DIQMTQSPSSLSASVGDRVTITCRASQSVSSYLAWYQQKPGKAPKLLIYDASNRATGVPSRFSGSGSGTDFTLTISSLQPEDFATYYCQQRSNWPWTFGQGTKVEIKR ?
# output 1.6

# input What do you have for TL1A-0280 (antibody, human IgG1, kappa, V domains shown, human IgG1 effector-function-minimized / human kappa) VH: QVQLVQSGAEVKKPGASVKVSCKASGYDFSYYGISWVRQAPGQGLEWMGWISTYNTNTHYAPSLQGRVTMTTDTSTSTAYMELRSLRSDDTAVYYCARESYYGSGAFRGGMDVWGQGTTVTVSS VL: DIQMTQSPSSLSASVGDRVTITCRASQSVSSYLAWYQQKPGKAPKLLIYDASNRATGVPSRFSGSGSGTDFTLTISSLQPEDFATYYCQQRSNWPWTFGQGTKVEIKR ?
# output 1.6
